# assay remarks: Cytotoxicity against human HepG2 cells incubated for 40 hrs by celltiter-glo luminescent cell viability assay
# Format: toxicity, cell-based
outcome measure: IC50 at 40 h (µg/mL)

molecule=CC[C@H](C)[C@@H](NC(=O)[C@@H](NC(=O)[C@H](CCC(=O)O)NC(=O)[C@H](Cc1ccccc1)NC(=O)[C@@H](CCN)NC(=O)[C@H](CCN)NC(=O)[C@H](CO)NC(=O)[C@@H](Cc1c[nH]c2ccccc12)NC(=O)[C@@H](CO)NC(=O)CNC(=O)[C@@H](CCN)NC(=O)[C@H](NC(=O)[C@H](C)N)C(C)C)C(C)(C)C)C(=O)N[C@@H](C)C(N)=O outcome_measure="IC50 at 40 h" censoring_qualifier=> reported_result=170
molecule=CC[C@H](C)[C@@H](NC(=O)[C@@H](NC(=O)[C@H](CCC(=O)O)NC(=O)[C@H](C)NC(=O)[C@@H](CCN)NC(=O)[C@H](CCN)NC(=O)[C@H](CO)NC(=O)[C@@H](Cc1c[nH]c2ccccc12)NC(=O)[C@@H](CO)NC(=O)CNC(=O)[C@@H](CCN)NC(=O)[C@H](N)C(C)C)C(C)C)C(=O)N[C@@H](C)C(=O)O outcome_measure="IC50 at 40 h" censoring_qualifier=> reported_result=170
molecule=CC[C@H](C)[C@@H](NC(=O)[C@@H](NC(=O)[C@H](CCC(=O)O)NC(=O)[C@H](Cc1ccccc1)NC(=O)[C@@H](CCN)NC(=O)[C@H](CCN)NC(=O)[C@H](CO)NC(=O)[C@@H](Cc1c[nH]c2ccccc12)NC(=O)[C@@H](CO)NC(=O)CNC(=O)[C@@H](CCN)NC(=O)[C@@H](C)N)C(C)C)C(=O)N[C@@H](C)C(=O)O outcome_measure="IC50 at 40 h" censoring_qualifier== reported_result=131
molecule=CC[C@H](C)[C@@H](NC(=O)[C@H](C)NC(=O)[C@H](CCC(=O)O)NC(=O)[C@H](Cc1ccccc1)NC(=O)[C@@H](CCN)NC(=O)[C@H](CCN)NC(=O)[C@H](CO)NC(=O)[C@@H](Cc1c[nH]c2ccccc12)NC(=O)[C@@H](CO)NC(=O)CNC(=O)[C@@H](CCN)NC(=O)[C@H](NC(=O)[C@H](C)N)C(C)C)C(=O)N[C@@H](C)C(=O)O outcome_measure="IC50 at 40 h" censoring_qualifier== reported_result=51
molecule=CC[C@H](C)[C@@H](NC(=O)[C@@H](NC(=O)[C@H](CCC(=O)O)NC(=O)[C@H](CC1CCCCC1)NC(=O)[C@@H](CCN)NC(=O)[C@H](CCN)NC(=O)[C@H](CO)NC(=O)[C@@H](Cc1c[nH]c2ccccc12)NC(=O)[C@@H](CO)NC(=O)CNC(=O)[C@@H](CCN)NC(=O)[C@H](NC(=O)[C@H](C)N)C(C)C)C(C)C)C(=O)N[C@@H](C)C(=O)O outcome_measure="IC50 at 40 h" censoring_qualifier== reported_result=37
molecule=CC[C@H](C)[C@@H](NC(=O)[C@@H](NC(=O)[C@H](CCC(=O)O)NC(=O)[C@H](Cc1ccccc1)NC(=O)[C@@H](CCN)NC(=O)[C@H](CCN)NC(=O)[C@H](CO)NC(=O)[C@@H](C)NC(=O)[C@@H](CO)NC(=O)CNC(=O)[C@@H](CCN)NC(=O)[C@H](N)C(C)C)C(C)C)C(=O)N[C@@H](C)C(=O)O outcome_measure="IC50 at 40 h" censoring_qualifier=> reported_result=170

----------
Listed compounds paired with reported IC50 at 40 h
# assay remarks: Cytotoxicity against human HepG2 cells incubated for 40 hrs by celltiter-glo luminescent cell viability assay
# Assay type: toxicity, cell-based
outcome measure: IC50 at 40 h

molecule=CC(C)C[C@@H](NC(=O)[C@@H](NC(=O)[C@H](CCC(=O)O)NC(=O)[C@H](Cc1ccccc1)NC(=O)[C@@H](CCN)NC(=O)[C@H](CCN)NC(=O)[C@H](CO)NC(=O)[C@@H](Cc1c[nH]c2ccccc12)NC(=O)[C@@H](CO)NC(=O)CNC(=O)[C@@H](CCN)NC(=O)[C@H](N)C(C)C)C(C)C)C(=O)N[C@@H](C)C(=O)O reported_result="161 µg/mL"
molecule=CC[C@H](C)[C@@H](NC(=O)[C@@H](NC(=O)[C@H](CCC(=O)O)NC(=O)[C@H](Cc1ccccc1)NC(=O)[C@@H](CCN)NC(=O)[C@H](CCN)NC(=O)[C@H](CO)NC(=O)[C@@H](Cc1c[nH]c2ccccc12)NC(=O)[C@@H](CO)NC(=O)CNC(=O)[C@@H](CCN)NC(=O)[C@H](NC(=O)C(F)(F)CN)C(C)C)C(C)C)C(=O)N[C@@H](C)C(=O)O reported_result="> 170 µg/mL"
molecule=CC[C@H](C)[C@@H](NC(=O)[C@@H](NC(=O)[C@H](CCC(=O)O)NC(=O)[C@H](Cc1ccccc1)NC(=O)[C@@H](CN)NC(=O)[C@H](CCN)NC(=O)[C@H](CO)NC(=O)[C@@H](Cc1c[nH]c2ccccc12)NC(=O)[C@@H](CO)NC(=O)CNC(=O)[C@@H](CCN)NC(=O)[C@H](NC(=O)[C@H](C)N)C(C)C)C(C)C)C(=O)N[C@@H](C)C(=O)O reported_result="> 170 µg/mL"

----------
Entries annotated with measured IC50 at 40 h
# assay remarks: Cytotoxicity against human HepG2 cells incubated for 40 hrs by celltiter-glo luminescent cell viability assay
# Type: toxicity, cell-based
outcome measure: IC50 at 40 h

molecule=CC[C@H](C)[C@@H](NC(=O)[C@@H](NC(=O)[C@H](CC(=O)O)NC(=O)[C@H](Cc1ccccc1)NC(=O)[C@@H](CCN)NC(=O)[C@H](CCN)NC(=O)[C@H](CO)NC(=O)[C@@H](Cc1c[nH]c2ccccc12)NC(=O)[C@@H](CO)NC(=O)CNC(=O)[C@@H](CCN)NC(=O)[C@H](N)C(C)C)C(C)C)C(=O)N[C@@H](C)C(=O)O reported_result="> 170 µg/mL"
molecule=CC[C@H](C)[C@@H](NC(=O)[C@@H](NC(=O)[C@H](CCC(=O)O)NC(=O)[C@H](Cc1ccccc1)NC(=O)[C@@H](CCN)NC(=O)[C@H](CCN)NC(=O)[C@H](CC(=O)O)NC(=O)[C@@H](Cc1c[nH]c2ccccc12)NC(=O)[C@@H](CO)NC(=O)CNC(=O)[C@@H](CCN)NC(=O)[C@H](N)C(C)C)C(C)C)C(=O)N[C@@H](C)C(=O)O reported_result="> 170 µg/mL"
molecule=CC[C@H](C)[C@H](N)C(=O)N[C@@H](C(=O)N[C@H](CCN)C(=O)NCC(=O)N[C@H](CO)C(=O)N[C@H](Cc1c[nH]c2ccccc12)C(=O)N[C@@H](CO)C(=O)N[C@@H](CCN)C(=O)N[C@H](CCN)C(=O)N[C@@H](Cc1ccccc1)C(=O)N[C@@H](CCC(=O)O)C(=O)N[C@H](C(=O)N[C@@H](C(=O)N[C@@H](C)C(=O)O)[C@@H](C)CC)C(C)C)C(C)C reported_result="20 µg/mL"

----------
# Test system: Klebsiella pneumoniae
# assay remarks: Antibacterial activity against wild-type Klebsiella pneumoniae ATCC 13883 assessed as inhibition of bacterial growth incubated for 18 hrs in presence of 50% heat inactivated human serum
# Assay type: functional
# assay setup: read-out: MIC100
outcome measure: MIC

molecule=CC[C@H](C)[C@@H](NC(=O)[C@@H](NC(=O)[C@H](CCC(=O)O)NC(=O)[C@H](Cc1ccccc1)NC(=O)[C@@H](CCN)NC(=O)[C@H](CCN)NC(=O)[C@H](CO)NC(=O)[C@@H](Cc1c[nH]c2ccccc12)NC(=O)[C@@H](CO)NC(=O)[C@H](CC(=O)O)NC(=O)[C@@H](CCN)NC(=O)[C@H](N)C(C)C)C(C)C)C(=O)N[C@@H](C)C(=O)O outcome_measure=MIC reported_result="> 64 µg/mL"
molecule=CC[C@H](C)[C@@H](NC(=O)[C@@H](NC(=O)[C@H](C)NC(=O)[C@H](Cc1ccccc1)NC(=O)[C@@H](CCN)NC(=O)[C@H](CCN)NC(=O)[C@H](CO)NC(=O)[C@@H](Cc1c[nH]c2ccccc12)NC(=O)[C@@H](CO)NC(=O)CNC(=O)[C@@H](CCN)NC(=O)[C@H](NC(=O)[C@H](C)N)C(C)C)C(C)C)C(=O)N[C@@H](C)C(=O)O outcome_measure=MIC reported_result="32 µg/mL"
molecule=CC[C@H](C)[C@@H](NC(=O)[C@@H](NC(=O)[C@H](CCC(=O)O)NC(=O)[C@H](Cc1ccccc1)NC(=O)[C@@H](CCN)NC(=O)[C@H](CCN)NC(=O)[C@H](CO)NC(=O)[C@@H](Cc1c[nH]c2ccccc12)NC(=O)[C@@H](CO)NC(=O)CNC(=O)[C@@H](CCN)NC(=O)[C@H](N)C(C)C)C(C)(C)C)C(=O)N[C@@H](C)C(N)=O outcome_measure=MIC reported_result="4 µg/mL"
molecule=CC[C@H](C)[C@@H](NC(=O)[C@@H](NC(=O)[C@H](CCC(=O)O)NC(=O)[C@H](Cc1ccccc1)NC(=O)[C@@H](C)NC(=O)[C@H](CCN)NC(=O)[C@H](CO)NC(=O)[C@@H](Cc1c[nH]c2ccccc12)NC(=O)[C@@H](CO)NC(=O)CNC(=O)[C@@H](CCN)NC(=O)[C@H](NC(=O)[C@H](C)N)C(C)C)C(C)C)C(=O)N[C@@H](C)C(=O)O outcome_measure=MIC reported_result="16 µg/mL"
molecule=CC[C@H](C)[C@@H](NC(=O)[C@@H](NC(=O)[C@H](CCC(=O)O)NC(=O)[C@H](Cc1ccccc1)NC(=O)[C@@H](CCN)NC(=O)[C@H](CCN)NC(=O)[C@H](CO)NC(=O)[C@@H](Cc1c[nH]c2ccccc12)NC(=O)[C@@H](CO)NC(=O)CNC(=O)[C@@H](CCN)NC(=O)[C@H](N)C(C)C)C(C)C)C(=O)N[C@@H](C)C(=O)O outcome_measure=MIC reported_result="8 µg/mL"
molecule=CC[C@H](C)[C@@H](NC(=O)[C@@H](NC(=O)[C@H](CCC(=O)O)NC(=O)[C@H](Cc1ccc(-c2ccccc2)cc1)NC(=O)[C@@H](CCN)NC(=O)[C@H](CCN)NC(=O)[C@H](CO)NC(=O)[C@@H](Cc1c[nH]c2ccccc12)NC(=O)[C@@H](CO)NC(=O)CNC(=O)[C@@H](CCN)NC(=O)[C@H](N)C(C)C)C(C)C)C(=O)N[C@@H](C)C(=O)O outcome_measure=MIC reported_result="4 µg/mL"
molecule=CC[C@@H](C)[C@@H](NC(=O)[C@@H](NC(=O)[C@H](CCC(=O)O)NC(=O)[C@H](Cc1ccccc1)NC(=O)[C@@H](CCN)NC(=O)[C@H](CCN)NC(=O)[C@H](CO)NC(=O)[C@@H](Cc1c[nH]c2ccccc12)NC(=O)[C@@H](CO)NC(=O)CNC(=O)[C@@H](CCN)NC(=O)[C@H](N)C(C)C)C(C)C)C(=O)N[C@@H](C)C(=O)O outcome_measure=MIC reported_result="8 µg/mL"
molecule=CC[C@H](C)[C@@H](NC(=O)[C@@H](NC(=O)[C@H](CCC(=O)O)NC(=O)[C@H](Cc1ccccc1)NC(=O)[C@@H](CCN)NC(=O)[C@H](C)NC(=O)[C@H](CO)NC(=O)[C@@H](Cc1c[nH]c2ccccc12)NC(=O)[C@@H](CO)NC(=O)CNC(=O)[C@@H](CCN)NC(=O)[C@H](NC(=O)[C@H](C)N)C(C)C)C(C)C)C(=O)N[C@@H](C)C(=O)O outcome_measure=MIC reported_result="16 µg/mL"
molecule=CC[C@H](C)[C@@H](NC(=O)[C@@H](NC(=O)[C@H](CCC(=O)O)NC(=O)[C@H](Cc1ccccc1)NC(=O)[C@@H](CCN)NC(=O)[C@H](CCN)NC(=O)[C@H](CO)NC(=O)[C@@H](Cc1c[nH]c2ccccc12)NC(=O)[C@@H](CO)NC(=O)CNC(=O)[C@@H](CCN)NC(=O)[C@H](NC(=O)[C@@H]1CCCN1)C(C)C)C(C)C)C(=O)N[C@@H](C)C(=O)O outcome_measure=MIC reported_result="1 µg/mL"
molecule=CC[C@H](C)[C@@H](NC(=O)[C@@H](NC(=O)[C@H](CCC(=O)O)NC(=O)[C@H](Cc1ccccc1)NC(=O)[C@@H](CCN)NC(=O)[C@H](CCN)NC(=O)[C@H](CO)NC(=O)[C@@H](Cc1c[nH]c2ccccc12)NC(=O)[C@@H](CO)NC(=O)CNC(=O)[C@@H](CCN)NC(=O)[C@H](NC(=O)[C@@H](N)C(C)C)C(C)C)C(C)C)C(=O)N[C@@H](C)C(=O)O outcome_measure=MIC reported_result="0.5 µg/mL"
molecule=CC(C)[C@H](NC(=O)[C@H](CCC(=O)O)NC(=O)[C@H](Cc1ccccc1)NC(=O)[C@@H](CCN)NC(=O)[C@H](CCN)NC(=O)[C@H](CO)NC(=O)[C@@H](Cc1c[nH]c2ccccc12)NC(=O)[C@@H](CO)NC(=O)CNC(=O)[C@@H](CCN)NC(=O)[C@H](NC(=O)[C@H](C)N)C(C)C)C(=O)N[C@H](C)C(=O)N[C@@H](C)C(=O)O outcome_measure=MIC reported_result="16 µg/mL"

Origin of measurements: ChEMBL document CHEMBL5518181
